Molecular target: UniProt P04062
Sequence (P04062 whole entry): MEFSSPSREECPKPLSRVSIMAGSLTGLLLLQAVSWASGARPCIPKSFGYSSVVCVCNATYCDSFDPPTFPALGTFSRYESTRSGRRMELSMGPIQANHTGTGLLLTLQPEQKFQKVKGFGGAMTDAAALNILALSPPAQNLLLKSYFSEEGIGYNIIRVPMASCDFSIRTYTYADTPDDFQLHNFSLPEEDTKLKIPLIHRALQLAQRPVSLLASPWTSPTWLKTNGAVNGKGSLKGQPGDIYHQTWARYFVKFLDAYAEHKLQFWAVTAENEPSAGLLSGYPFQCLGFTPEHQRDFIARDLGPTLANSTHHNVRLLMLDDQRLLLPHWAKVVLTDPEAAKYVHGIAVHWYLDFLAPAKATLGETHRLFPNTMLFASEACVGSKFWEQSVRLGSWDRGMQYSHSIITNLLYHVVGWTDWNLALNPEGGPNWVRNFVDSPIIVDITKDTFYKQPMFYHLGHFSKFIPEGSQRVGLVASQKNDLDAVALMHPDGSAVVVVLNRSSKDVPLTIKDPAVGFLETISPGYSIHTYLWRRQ
Assay: Inhibition of human beta-glucocerebrosidase at 20 uM by fluorescence spectrophotometry
Activity calls are given as the source filed them. No cut-off for these calls is given here.
property measured: inhibition

Check out these entries, answers already filled in.
Lab note: need inhibition with UniProt P04062 for entry `O=C(CC1c2ccccc2-c2ccccc21)NCCCCN1C[C@H](O)[C@@H](O)[C@H](O)[C@H]1CO` , please look it up. Active

Form entry - test system: UniProt P04062; read-out: inhibition; compound: `O=C(CCC1CCCC1)NCCCCN1C[C@H](O)[C@@H](O)[C@H](O)[C@H]1CO` < 60%

Value wanted: inhibition (UniProt P04062) of entry `O=C(NCCCCN1C[C@H](O)[C@@H](O)[C@H](O)[C@H]1CO)C1CCC1` < 60%

inhibition of `O=C(CC(c1ccccc1)(c1ccccc1)c1ccccc1)NCCCCN1C[C@H](O)[C@@H](O)[C@H](O)[C@H]1CO` on UniProt P04062? Active

// map `O=C(NCCCCN1C[C@H](O)[C@@H](O)[C@H](O)[C@H]1CO)C1CC1` to recorded inhibition (system: UniProt P04062) < 60%

Fill in inhibition for each of the 4 compounds listed.
1. O=C(COc1ccc(Cl)c(Cl)c1)NCCCCN1C[C@H](O)[C@@H](O)[C@H](O)[C@H]1CO
2. O=C(NCCCCN1C[C@H](O)[C@@H](O)[C@H](O)[C@H]1CO)C1CCCC1
3. O=C(NCCCCN1C[C@H](O)[C@@H](O)[C@H](O)[C@H]1CO)C1CCc2ccccc2C1 (some centres not stated)
4. O=C(Cc1cc(C(F)(F)F)cc(C(F)(F)F)c1)NCCCCN1C[C@H](O)[C@@H](O)[C@H](O)[C@H]1CO

Active
< 60%
Active
Active

Provide inhibition for all items below, preserving their order.
1. O=C(CC1CCCCC1)NCCCCN1C[C@H](O)[C@@H](O)[C@H](O)[C@H]1CO
2. COc1ccc2c(c1)C(CC(=O)NCCCCN1C[C@H](O)[C@@H](O)[C@H](O)[C@H]1CO)CC2 (some centres not stated)
3. O=C(CC1CCCC1)NCCCCN1C[C@H](O)[C@@H](O)[C@H](O)[C@H]1CO

["< 60%", "Active", "< 60%"]

Ref: ChEMBL document CHEMBL2413029
